- assay-overview: pKa for compound was evaluated
- Type: physicochemical
The label depends only on pKa: Met if it is at least 9, Not met if it is smaller.

[[record]]
compound = "NC(Cc1cc(I)c(Oc2ccc(O)c(O)c2)c(I)c1)C(=O)O (stereo not given)"
assigned_class = "Met"

[[record]]
compound = "CC(C)(C)c1cc(Oc2c(I)cc(CC(N)C(=O)O)cc2I)ccc1O (stereo not given)"
assigned_class = "Met"

[[record]]
compound = "N[C@@H](Cc1cc(I)c(Oc2ccc(O)c(I)c2)c(I)c1)C(=O)O [LIOTHYRONINE]"
assigned_class = "Not met"

[[record]]
compound = "Cc1cc(Oc2c(I)cc(CC(N)C(=O)O)cc2I)ccc1O (stereo not given)"
assigned_class = "Met"

[[record]]
compound = "NC(Cc1cc(I)c(Oc2ccc(O)c(Br)c2)c(I)c1)C(=O)O (stereo not given)"
assigned_class = "Not met"


---

- assay-overview: pKa for compound was evaluated
- Format: physicochemical
quantity-kind: pKa

[[record]]
compound = "NC(Cc1cc(I)c(Oc2ccc(O)c(Cl)c2)c(I)c1)C(=O)O (configuration not stated)"
assay_value = 8.56

[[record]]
compound = "CC(=O)c1cc(Oc2c(I)cc(CC(N)C(=O)O)cc2I)ccc1O (configuration not stated)"
assay_value = 10.1

[[record]]
compound = "NC(Cc1cc(I)c(Oc2ccc(O)c(CO)c2)c(I)c1)C(=O)O (configuration not stated)"
assay_value = 9.92

[[record]]
compound = "COCc1cc(Oc2c(I)cc(CC(N)C(=O)O)cc2I)ccc1O (configuration not stated)"
assay_value = 9.85

[[record]]
compound = "NC(Cc1cc(I)c(Oc2ccc(O)c(C=O)c2)c(I)c1)C(=O)O (configuration not stated)"
assay_value = 8.37

[[record]]
compound = "C=CCc1cc(Oc2c(I)cc(CC(N)C(=O)O)cc2I)ccc1O (configuration not stated)"
assay_value = 10.3

[[record]]
compound = "NC(Cc1cc(I)c(Oc2ccc(O)c(F)c2)c(I)c1)C(=O)O (configuration not stated)"
assay_value = 8.73

[[record]]
compound = "N[C@@H](Cc1cc(I)c(Oc2ccc(O)cc2)c(I)c1)C(=O)O"
assay_value = 9.99

[[record]]
compound = "NC(Cc1cc(I)c(Oc2ccc(O)c([N+](=O)[O-])c2)c(I)c1)C(=O)O (configuration not stated)"
assay_value = 7.23

[[record]]
compound = "NC(Cc1cc(I)c(Oc2ccc(O)c(Cc3ccccc3)c2)c(I)c1)C(=O)O (configuration not stated)"
assay_value = 10.1

[[record]]
compound = "NC(Cc1cc(I)c(Oc2ccc(O)c(-c3ccccc3)c2)c(I)c1)C(=O)O (configuration not stated)"
assay_value = 10

[[record]]
compound = "CC(C)c1cc(Oc2c(I)cc(CC(N)C(=O)O)cc2I)ccc1O (configuration not stated)"
assay_value = 10.5


src = ChEMBL document CHEMBL1123960
